// provenance: patent US20240376121A1

# SYSTEM_UNDER_TEST: HiBit-BRG1 fusion protein (Homo sapiens)
# Construct: expressed in transfected cells
# Sequence (P51532 whole entry, the tested form may be a part): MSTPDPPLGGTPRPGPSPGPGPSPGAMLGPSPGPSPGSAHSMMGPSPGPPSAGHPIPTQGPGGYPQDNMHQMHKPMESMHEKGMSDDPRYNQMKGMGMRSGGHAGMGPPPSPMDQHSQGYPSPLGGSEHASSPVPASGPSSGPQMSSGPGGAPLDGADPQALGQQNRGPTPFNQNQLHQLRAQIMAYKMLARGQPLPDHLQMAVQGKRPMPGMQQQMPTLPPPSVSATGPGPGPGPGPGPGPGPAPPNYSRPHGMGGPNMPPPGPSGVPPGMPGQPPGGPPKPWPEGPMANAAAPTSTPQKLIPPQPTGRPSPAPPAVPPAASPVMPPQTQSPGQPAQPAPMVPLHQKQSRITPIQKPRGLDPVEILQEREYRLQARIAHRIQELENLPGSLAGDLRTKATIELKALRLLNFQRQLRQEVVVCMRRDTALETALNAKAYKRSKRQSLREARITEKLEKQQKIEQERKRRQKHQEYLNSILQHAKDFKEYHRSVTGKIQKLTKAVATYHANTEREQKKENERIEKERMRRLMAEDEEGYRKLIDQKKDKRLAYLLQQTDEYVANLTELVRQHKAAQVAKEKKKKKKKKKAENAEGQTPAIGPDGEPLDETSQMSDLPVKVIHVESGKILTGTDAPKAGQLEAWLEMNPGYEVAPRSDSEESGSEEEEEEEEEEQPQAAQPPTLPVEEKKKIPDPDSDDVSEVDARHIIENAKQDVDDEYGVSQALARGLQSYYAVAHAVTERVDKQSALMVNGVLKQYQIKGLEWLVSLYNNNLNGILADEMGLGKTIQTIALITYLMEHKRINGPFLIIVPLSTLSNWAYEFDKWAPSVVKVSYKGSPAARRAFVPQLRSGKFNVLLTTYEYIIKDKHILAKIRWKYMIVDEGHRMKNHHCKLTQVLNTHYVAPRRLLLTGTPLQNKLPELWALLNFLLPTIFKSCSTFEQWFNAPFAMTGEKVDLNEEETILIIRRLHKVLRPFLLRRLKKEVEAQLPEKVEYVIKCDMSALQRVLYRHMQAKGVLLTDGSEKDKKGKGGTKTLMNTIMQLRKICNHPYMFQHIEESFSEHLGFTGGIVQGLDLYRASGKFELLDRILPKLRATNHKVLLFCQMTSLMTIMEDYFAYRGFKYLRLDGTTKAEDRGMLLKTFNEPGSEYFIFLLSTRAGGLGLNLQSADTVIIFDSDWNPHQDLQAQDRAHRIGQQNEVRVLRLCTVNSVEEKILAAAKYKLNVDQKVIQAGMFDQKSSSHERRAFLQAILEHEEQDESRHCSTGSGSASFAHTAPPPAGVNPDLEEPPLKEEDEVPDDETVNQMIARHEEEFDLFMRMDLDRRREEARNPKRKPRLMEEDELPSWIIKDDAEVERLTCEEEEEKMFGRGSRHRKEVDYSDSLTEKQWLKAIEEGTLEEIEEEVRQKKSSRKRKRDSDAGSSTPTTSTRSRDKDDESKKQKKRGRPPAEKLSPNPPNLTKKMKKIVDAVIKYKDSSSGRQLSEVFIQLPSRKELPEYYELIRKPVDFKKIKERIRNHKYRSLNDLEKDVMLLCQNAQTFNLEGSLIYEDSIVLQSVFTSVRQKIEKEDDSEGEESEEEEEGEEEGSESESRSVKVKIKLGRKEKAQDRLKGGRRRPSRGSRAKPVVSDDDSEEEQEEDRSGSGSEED
# PROTOCOL_DETAILS: HiBiT-BRG1 cell-based degradation assay (Nano-Glo HiBiT Lytic Detection)
# CONDITIONS: stable HeLa cell line expressing HiBit-BRG1 and LgBit, 24 h incubation, top dose 30 μM; read-out: BRG1 HiBit Degradation Maximum (%)
ASSAY_READOUT: Dmax

Below, 4 compounds whose answers are already recorded.
# GIVEN_SMILES, ASSAY_READOUT, REPORTED_RESULT
records = [
    ("Cc1ncsc1-c1ccc([C@H](C)NC(=O)[C@@H]2C[C@@H](O)CN2C(=O)[C@@H](c2cc(OCCN3CCC(O)(c4cc5nnc(-c6ccccc6O)cc5s4)CC3)no2)C(C)C)cc1", "Dmax", "< 50%"),
    ("Cc1ncsc1-c1ccc([C@H](C)NC(=O)[C@@H]2C[C@@H](O)CN2C(=O)[C@@H](c2cc(OCCN3C[C@H]4C[C@@H]3C[C@H]4c3sc4nnc(-c5ccccc5O)cc4c3C)no2)C(C)C)cc1", "Dmax", "≥ 50%"),
    ("Cc1ncsc1-c1ccc([C@H](C)NC(=O)[C@@H]2C[C@@H](O)CN2C(=O)[C@@H](c2cc(OCCN3CC4(CC(c5sc6nnc(-c7ccccc7O)cc6c5C)C4)C3)no2)C(C)C)cc1", "Dmax", "< 50%"),
    ("Cc1ncsc1-c1ccc(CNC(=O)[C@@H]2C[C@@H](O)CN2C(=O)[C@@H](NC(=O)CCC(=O)N2CCC(c3cc4nnc(-c5ccccc5O)cc4s3)CC2)C(C)(C)C)cc1", "Dmax", "< 50%"),
]

q: What value of Dmax has been recorded for this entry: Cc1ncsc1-c1ccc([C@H](C)NC(=O)[C@@H]2C[C@@H](O)CN2C(=O)[C@@H](c2cc(N3CCC(CN4CC(c5cc6cc(-c7ccccc7O)nnc6s5)C4)CC3)no2)C(C)C)cc1
a: < 50%

* * *

# SYSTEM_UNDER_TEST: HiBit-BRM fusion protein (Homo sapiens, UniProt P51531)
# Construct: expressed in transfected cells
# Sequence (P51531 whole entry, the tested form may be a part): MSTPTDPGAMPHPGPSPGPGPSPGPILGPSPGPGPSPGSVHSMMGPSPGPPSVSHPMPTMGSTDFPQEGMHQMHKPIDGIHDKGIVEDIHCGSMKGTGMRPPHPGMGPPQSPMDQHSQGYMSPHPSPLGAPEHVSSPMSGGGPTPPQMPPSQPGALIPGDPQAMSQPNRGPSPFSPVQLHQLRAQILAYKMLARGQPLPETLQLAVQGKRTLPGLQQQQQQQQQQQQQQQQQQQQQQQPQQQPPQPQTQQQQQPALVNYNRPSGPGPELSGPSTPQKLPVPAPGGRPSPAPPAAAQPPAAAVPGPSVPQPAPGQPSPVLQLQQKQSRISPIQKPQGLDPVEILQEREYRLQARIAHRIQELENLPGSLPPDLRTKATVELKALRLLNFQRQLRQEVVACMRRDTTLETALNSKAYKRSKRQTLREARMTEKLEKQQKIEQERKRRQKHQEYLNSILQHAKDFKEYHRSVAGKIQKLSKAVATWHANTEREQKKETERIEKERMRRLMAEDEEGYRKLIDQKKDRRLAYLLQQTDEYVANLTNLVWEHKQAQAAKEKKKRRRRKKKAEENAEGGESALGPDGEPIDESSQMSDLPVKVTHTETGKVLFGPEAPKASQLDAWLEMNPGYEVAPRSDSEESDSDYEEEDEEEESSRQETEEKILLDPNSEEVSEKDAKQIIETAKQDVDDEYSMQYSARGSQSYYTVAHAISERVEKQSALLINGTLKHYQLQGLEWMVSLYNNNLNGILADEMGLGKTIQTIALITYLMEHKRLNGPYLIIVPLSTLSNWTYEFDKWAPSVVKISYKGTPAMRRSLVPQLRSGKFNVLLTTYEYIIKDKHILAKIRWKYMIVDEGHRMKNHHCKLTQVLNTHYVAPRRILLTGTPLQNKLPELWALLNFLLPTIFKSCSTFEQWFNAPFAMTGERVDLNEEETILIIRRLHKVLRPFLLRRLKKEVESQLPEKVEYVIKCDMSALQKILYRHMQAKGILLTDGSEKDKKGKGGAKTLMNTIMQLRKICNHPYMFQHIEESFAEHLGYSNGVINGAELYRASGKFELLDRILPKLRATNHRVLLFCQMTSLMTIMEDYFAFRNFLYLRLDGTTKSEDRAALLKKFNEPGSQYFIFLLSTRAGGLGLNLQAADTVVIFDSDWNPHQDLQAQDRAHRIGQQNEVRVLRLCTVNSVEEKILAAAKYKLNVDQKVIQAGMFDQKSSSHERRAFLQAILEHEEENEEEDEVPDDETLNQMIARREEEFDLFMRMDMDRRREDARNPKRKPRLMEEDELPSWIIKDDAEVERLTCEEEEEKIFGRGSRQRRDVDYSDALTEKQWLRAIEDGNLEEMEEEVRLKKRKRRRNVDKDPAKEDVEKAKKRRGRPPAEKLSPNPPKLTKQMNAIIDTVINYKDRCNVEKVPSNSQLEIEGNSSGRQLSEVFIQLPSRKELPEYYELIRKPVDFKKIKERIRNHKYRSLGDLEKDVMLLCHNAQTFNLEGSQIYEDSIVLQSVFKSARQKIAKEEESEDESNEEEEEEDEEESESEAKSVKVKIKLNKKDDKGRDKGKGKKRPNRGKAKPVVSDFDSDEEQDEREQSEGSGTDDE
# PROTOCOL_DETAILS: HiBiT-BRM cell-based degradation assay (Nano-Glo HiBiT Lytic Detection)
# CONDITIONS: stable HeLa cell line expressing HiBiT-BRM, 24 h incubation; read-out: BRM HiBit Degradation IC50
ASSAY_READOUT: DC50

# COMPOUND, SYSTEM_UNDER_TEST, DC50
measured = [
    ("Cc1ncsc1-c1ccc([C@H](C)NC(=O)[C@@H]2C[C@@H](O)CN2C(=O)[C@@H](c2cc(OCCCN3CC(c4cc5nnc(-c6ccccc6O)cc5s4)C3)no2)C(C)C)cc1 [Compound 104]", "HiBit-BRM fusion protein (Homo sapiens, UniProt P51531)", "≥ 10 nM"),
    ("Cc1ncsc1-c1ccc([C@H](C)NC(=O)[C@@H]2C[C@@H](O)CN2C(=O)[C@@H](c2cc(OCCN3CCC(N4CC(c5sc6nnc(-c7ccccc7O)cc6c5C)C4)CC3)no2)C(C)C)cc1 [Compound 100]", "HiBit-BRM fusion protein (Homo sapiens, UniProt P51531)", "≥ 10 nM"),
    ("Cc1ncsc1-c1ccc([C@H](C)NC(=O)[C@@H]2C[C@@H](O)CN2C(=O)[C@@H](c2cc(OCCN3C[C@@H]4[C@H](C3)[C@H]4c3c(C)sc4nnc(-c5ccccc5O)cc34)no2)C(C)C)cc1 [Compound 21]", "HiBit-BRM fusion protein (Homo sapiens, UniProt P51531)", "≥ 1000 nM"),
    ("Cc1ncsc1-c1ccc([C@@H](C)NC(=O)[C@H]2C[C@H](O)CN2C(=O)[C@H](c2cc(OCCN3CC(Cc4cc5cc(-c6ccccc6O)nnc5s4)C3)no2)C(C)C)cc1 [Compound 23]", "HiBit-BRM fusion protein (Homo sapiens, UniProt P51531)", "≥ 100 nM"),
    ("Cc1ncsc1-c1ccc([C@H](C)NC(=O)[C@@H]2C[C@@H](O)CN2C(=O)[C@@H](c2cc(OCCN3CC4CC3CC4c3cc4cc(-c5ccccc5O)nnc4s3)no2)C(C)C)cc1 (stereo partly shown) [Compound 67]", "HiBit-BRM fusion protein (Homo sapiens, UniProt P51531)", "≥ 100 nM"),
    ("Cc1ncsc1-c1ccc(CNC(=O)[C@@H]2C[C@@H](O)CN2C(=O)[C@@H](NC(=O)CCN2CCC(c3cc4cc(-c5ccccc5O)nnc4s3)CC2)C(C)(C)C)cc1 [Compound 24]", "HiBit-BRM fusion protein (Homo sapiens, UniProt P51531)", "≥ 1000 nM"),
    ("Cc1ncsc1-c1ccc([C@H](C)NC(=O)[C@@H]2C[C@@H](O)CN2C(=O)[C@H](c2cc(C3CCN(C(=O)CN4CC(c5cc6cc(-c7ccccc7O)nnc6s5)C4)CC3)no2)C(C)C)cc1 [Compound 12]", "HiBit-BRM fusion protein (Homo sapiens, UniProt P51531)", "≥ 1000 nM"),
    ("Cc1ncsc1-c1ccc([C@H](C)NC(=O)[C@@H]2C[C@@H](O)CN2C(=O)[C@@H](c2cc(N3CCC(CN4CC(c5cc6cc(-c7ccccc7O)nnc6s5)C4)CC3)no2)C(C)C)cc1 [Compound 7]", "HiBit-BRM fusion protein (Homo sapiens, UniProt P51531)", "≥ 10 nM"),
]

q: Data request, read-out DC50, for Cc1ncsc1-c1ccc(CNC(=O)[C@@H]2C[C@@H](O)CN2C(=O)[C@@H](NC(=O)CCN2CCC(c3cc4nnc(-c5ccccc5O)cc4s3)CC2)C(C)(C)C)cc1 [Compound 78]
a: ≥ 100 nM

q: May I ask what DC50 has been recorded for Cc1ncsc1-c1ccc([C@@H](C)NC(=O)[C@H]2C[C@H](O)CN2C(=O)[C@H](c2cc(OCCN3C[C@@H]4[C@H](C3)[C@H]4c3sc4nnc(-c5ccccc5O)cc4c3C)no2)C(C)C)cc1 [Compound 15] ?
a: ≥ 10 nM
